All values here come from patent US20220185876A1.

subject-of-test: T1, human FGF23 (human, UniProt Q9GZV9 25-251)
T1 construct: also called recombinant human FGF-23; Fibroblast Growth Factor 23
T1 sequence: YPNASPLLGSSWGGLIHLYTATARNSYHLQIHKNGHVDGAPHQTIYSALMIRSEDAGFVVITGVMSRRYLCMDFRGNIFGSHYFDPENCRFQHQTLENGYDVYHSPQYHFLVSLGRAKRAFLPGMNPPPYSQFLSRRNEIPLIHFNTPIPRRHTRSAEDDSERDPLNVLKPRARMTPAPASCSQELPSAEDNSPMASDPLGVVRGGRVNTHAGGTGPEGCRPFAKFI
test: ELISA, binding to human FGF23 (A450 against log mAb concentration)
Catalogue of EC50 readings, one per entry.
Give your result in µg/mL as a bare value.

stdin: Answer with the recorded EC50 for the binder listed here: Exc23.4 (antibody, V domains shown, Monoclonal anti-FGF23 antibody) VH: EVQLVQSGAEVRKPGASVKVSCKASGYTFTNHYMHWVRQAPGQGLEWMGIINPISGSTSNAQKLQGRVTFTRDTSANTAYMELSGLIPEDTAIYYCARDIVDAFDFWGQGTLVTVSS VL: DIQMTQSPSSLSASVGDRVTITCRASQGISSALVWYQQKPGKAPKLLIYDASSLQTGVPSRFSGSGSGTDFTFTISSLQPEDIATYYCQQFNDYFSFGPGTKLEIK
stdout: 0.0266

stdin: For the binder Exc23.5 (antibody, V domains shown, Monoclonal anti-FGF23 antibody) VH: EVQLVQSGAEVRKPGASVKVSCKASGYTFTNHYMHWVRQAPGQGLEWMGIINPISGSTSNAQKLQGRVTFTRDTSANTAYMELSGLIPEDTAIYYCARDIVDAFDFWGQGTLVTVSS VL: AIQMTQSPSSLSASVGDRVTITCKASQGISSALVWYQQKPGKAPKLLIYDASSLQTGVPSRFSGSGSGTDFTFTISSLQPEDIATYYCQQFNDYFSFGPGTKLEIK , report EC50.
stdout: 0.0273

stdin: Assign EC50 to the following record: Exc23 (antibody, V domains shown, Monoclonal anti-FGF23 antibody) VH: EVQLVQSGAEVRKPGASVKVSCKASGYTFTNHYMHWVRQAPGQGLEWMGIINPISGSTSNAQKLQGRVTFTRDTSANTAYMELSGLIPEDTAIYYCARDIVDAFDFWGQGTLVTVSS VL: DIQMTQSPSSLSASVGDRVTITCKASQGISSALVWYQQKPGKAPKLLIYDASSLQTGVPSRFSGSGSGTDFTFTISSLQPEDIATYYCQQFNDYFSFGPGTKLEIK
stdout: 0.0295

stdin: Return EC50 (reported value) for this binder: Exc23.2 (antibody, V domains shown, Monoclonal anti-FGF23 antibody) VH: EVQLVQSGAEVRKPGASVKVSCKASGYTFTNHYMHWVRQAPGQGLEWMGIINPISGSTSNAQKLQGRVTFTRDTSANTAYMELSGLIPEDTAIYYCARDIVDAFDFWGQGTLVTVSS VL: DIQMTQSPSSLSASVGDRVTITCKASQGISSALVWYQQKPGKAPKLLIYDASSLQSGVPSRFSGSGSGTDFTFTISSLQPEDIATYYCQQFNDYFSFGPGTKLEIK
stdout: 0.0262

stdin: State its EC50 for this binder: Exc23.1 (antibody, V domains shown, Monoclonal anti-FGF23 antibody) VH: EVQLVQSGAEVRKPGASVKVSCKASGYTFTNHYMHWVRQAPGQGLEWMGIINPISGSTSNAQKLQGRVTFTRDTSANTAYMELSGLIPEDTAIYYCARDIVDAFDFWGQGTLVTVSS VL: DIQMTQSPSSLSASVGDRVTITCKASQGISSALVWYQQKPGKAPKLLIYDASSLETGVPSRFSGSGSGTDFTFTISSLQPEDIATYYCQQFNDYFSFGPGTKLEIK
stdout: 0.0332

stdin: # return recorded EC50 for input Exc23.3 (antibody, V domains shown, Monoclonal anti-FGF23 antibody) VH: EVQLVQSGAEVRKPGASVKVSCKASGYTFTNHYMHWVRQAPGQGLEWMGIINPISGSTSNAQKLQGRVTFTRDTSANTAYMELSGLIPEDTAIYYCARDIVDAFDFWGQGTLVTVSS VL: DIQMTQSPSSLSASVGDRVTITCKASQGISSALVWYQQKPGKAPKLLIYDASSLQTGVPSRFSGSGSGTDFTFTISSLQPEDIATYYCQQFNDYFTFGPGTKLEIK
stdout: 0.0286
